# Target under test: S. pneumoniae WalK (Streptococcus pneumoniae, UniProt Q8DPL8)
# Construct: WalK (amino acids from 208 to 449); N-terminal His6-3C site of vector pOPINF (own knowledge of the vector); made in house; host or cells: E. coli RIL
# Sequence (Q8DPL8 208-449): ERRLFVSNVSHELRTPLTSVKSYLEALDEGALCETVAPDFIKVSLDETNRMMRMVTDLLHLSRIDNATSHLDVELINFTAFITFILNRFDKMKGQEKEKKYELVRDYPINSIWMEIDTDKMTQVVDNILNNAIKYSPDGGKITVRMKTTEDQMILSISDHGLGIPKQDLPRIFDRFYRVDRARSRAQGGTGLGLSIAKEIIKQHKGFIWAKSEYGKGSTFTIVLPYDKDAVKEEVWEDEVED
# Assay text: In vitro autophosphorylation kinase assay with γ-32P-ATP, WalK
# Assay type: biochemical
# Condition parameters: IC50 WalK, autophosphorylation, one time point (30 sec), 10% DMSO
Listed here: items and their measured IC50.

Guide cases for IC50, answers given:
* CC(C)(C)c1ccc(OCc2c[nH]cn2)cc1 [F1.10] | > 2 mM
* c1ccc2cc(CNc3ccc4c(c3)OCCO4)ccc2c1 [S7] | > 5 mM
* CC(NCc1cccc2ccccc12)c1cccc(F)c1 (stereo not drawn) [S9] | > 5 mM
* CC(NC(=O)C1CC(=O)N(c2ccccc2)C1)c1cccc(NC(=O)c2ccccc2)c1 (stereo not drawn) [S3] | > 5 mM
* CC(NCc1cccc2ccccc12)c1ccc(F)cc1 (stereo not drawn) [S8] | > 5 mM
* CC(NCc1cccc(F)c1)c1ccc2ccccc2c1 (stereo not drawn) [S10] | > 5 mM
* Nc1nnc(-c2ccc(Br)cc2)o1 [F1.5] | > 2 mM
* CCc1ccc2[nH]c3ccccc3c2c1 [F2.9] | > 2 mM

# input GET /values?readout=IC50&item= Cc1ccc(-c2csc(N)n2)cc1 [F1.3]
# output > 2 mM

###

Listed here: items and their measured MIC.
# Tested on: Escherichia coli
# Assay text: Antibacterial susceptibility testing (MIC/MBC), E. coli
# Type: cell-based
# Condition parameters: Escherichia coli, read-out: MIC E. coli CFT 073

* Cn1c2ccccc2c2ccccc21 [F2.6] | > 500 µg/mL
* CC(=O)Nc1ccc2c(c1)Cc1cc(Br)ccc1-2 [S1.20] | > 500 µg/mL
* c1ccc2c(c1)[nH]c1ccccc12 [F2.5] | > 500 µg/mL
* Nc1ccc2c(c1)[nH]c1ccccc12 [F2.1] | > 500 µg/mL

# input GET /values?readout=MIC&item= c1ccc2[nH]ccc2c1 [F2.7]
# output 500 µg/mL

###

# Test system: Staphylococcus aureus
# Assay text: Antibacterial susceptibility testing (MIC/MBC), S. aureus
# Type: cell-based
# Condition parameters: Staphylococcus aureus, DSM20231, strain DSM 20231; read-out: MBC S. aureus DSM 20231
Listed here: items and their measured MBC.
Your answer is read as µg/mL, so omit the unit and give the number.

Guide cases for MBC, answers given:
• CC[C@H](c1ccc(O)cc1)[C@@H](CC)c1ccc(F)cc1 [S1.13] = 33
• Nc1nc(-c2ccccc2Cl)cs1 [F1.6] = 250
• Oc1cccc2[nH]c3ccccc3c12 [F2.8] = 63
• CC(C)(C)c1ccc(O)c(CNc2ccccc2)c1 [S1.14] = 500
• CC(C)NCC(O)COc1cccc2[nH]c3ccccc3c12 (stereo not drawn) [F2.4] = 250

Query compound follows.
# input Give MBC (Staphylococcus aureus) of the following compound: Nc1nccc(Nc2ccc(Br)cc2)n1 [F1.8]
# output 250

###

Listed here: items and their measured MIC K. pneumoniae ATCC700603.
# Test system: Klebsiella pneumoniae
# Assay text: Antibacterial susceptibility testing (MIC), K. pneumoniae
# Format: cell-based
# Condition parameters: strain ATCC 700603

Guide cases for MIC K. pneumoniae ATCC700603, answers given:
- CC[C@H](c1ccc(O)cc1)[C@@H](CC)c1ccc(F)cc1: >500 µg/mL
- CC(=O)Nc1cccc(-c2ccccc2Cl)c1 [S1.7, N-[3-(2-chlorophenyl)phenyl]acetamide]: >500 µg/mL

# input GET /values?readout=MIC K. pneumoniae ATCC700603&item= `CC(C)(C)c1ccc(O)c(CNc2ccccc2)c1`
# output >500 µg/mL

# input GET /values?readout=MIC K. pneumoniae ATCC700603&item= `Nc1nccc(Nc2ccc(Br)cc2)n1`
# output 250 µg/mL

###

# System: Acinetobacter baumannii
# Assay text: Antibacterial susceptibility testing (MIC), A. baumannii
# Type: cell-based
# Condition parameters: MDR clinical isolate NM35, read-out: MIC A. baumannii NM35
Observation type: MIC (µg/mL)
Your answer is read as µg/mL, so omit the unit and give the number.

- Nc1nccc(Nc2ccc(Br)cc2)n1: 125

Query compound follows.
# input Give MIC (Acinetobacter baumannii) of the following compound: `CC(C)(C)c1ccc(O)c(CNc2ccccc2)c1`
# output 500

###

# Tested on: Acinetobacter baumannii
# Assay text: Antibacterial susceptibility testing (MIC), A. baumannii
# Format: cell-based
# Condition parameters: MDR clinical isolate NM8, read-out: MIC A. baumannii NM8
# Description: Bacterial strains used in this study for antibacterial susceptibility testing (Table S5) were propagated using standard microbiological procedures. Minimal inhibitory concentrations (MICs) were determined following a standard double-dilution method. MICs were recorded as the lowest concentration of the compound where no visible growth was observed. […]
Observation type: MIC

Guide cases for MIC, answers given:
• CC(C)NCC(O)COc1cccc2[nH]c3ccccc3c12 (stereo not drawn) = 500 µg/mL
• NCCc1ccc2c(c1)[nH]c1ccccc12 = > 500 µg/mL
• Nc1nccc(Nc2ccc(Br)cc2)n1 = 125 µg/mL

# input GET /values?readout=MIC&item= CC(=O)Nc1cccc(-c2ccccc2Cl)c1 [S1.7, N-[3-(2-chlorophenyl)phenyl]acetamide]
# output > 500 µg/mL

# input GET /values?readout=MIC&item= `Oc1cccc2[nH]c3ccccc3c12`
# output > 500 µg/mL

# input GET /values?readout=MIC&item= `Nc1nc(-c2ccc(Br)cc2)cs1`
# output > 500 µg/mL

# input GET /values?readout=MIC&item= `CC[C@H](c1ccc(O)cc1)[C@@H](CC)c1ccc(F)cc1`
# output > 500 µg/mL

# input GET /values?readout=MIC&item= `Nc1nc(-c2ccccc2Cl)cs1`
# output > 500 µg/mL

# input GET /values?readout=MIC&item= `CC(C)(C)c1ccc(O)c(CNc2ccccc2)c1`
# output 500 µg/mL

###

Listed here: items and their measured MIC.
# System: Staphylococcus aureus
# Assay text: Antibacterial susceptibility testing (MIC/MBC), S. aureus
# Type: cell-based
# Condition parameters: Staphylococcus aureus, MRSA clinical isolate 274/08; read-out: MIC S. aureus 274/08
Your answer is read as µg/mL, so omit the unit and give the number.

Guide cases for MIC, answers given:
* Nc1nc(-c2ccccc2Cl)cs1 [F1.6] | 500
* CC(C)(C)c1ccc(O)c(CNc2ccccc2)c1 [S1.14] | 250
* CC[C@H](c1ccc(O)cc1)[C@@H](CC)c1ccc(F)cc1 [S1.13] | 16
* Oc1cccc2[nH]c3ccccc3c12 [F2.8] | 250
* CC(=O)Nc1cccc(-c2ccccc2Cl)c1 [S1.7, N-[3-(2-chlorophenyl)phenyl]acetamide] | 250
* CC(C)NCC(O)COc1cccc2[nH]c3ccccc3c12 (stereo not drawn) [F2.4] | 500
* Nc1nc(-c2ccc(Br)cc2)cs1 [F1, 4-(4-bromophenyl)-1,3-thiazol-2-amine] | 125

Query molecule follows.
# input GET /values?readout=MIC&item= Nc1nccc(Nc2ccc(Br)cc2)n1 [F1.8]
# output 250

###

# Assay text: Solubility in kinase buffer
# Type: physicochemical
# Condition parameters: kinase buffer in the presence of 10% DMSO
Observation type: solubility in kinase buffer

- Oc1cccc2[nH]c3ccccc3c12 [F2.8]: good solubility
- CC[C@H](c1ccc(O)cc1)[C@@H](CC)c1ccc(F)cc1 [S1.13]: good solubility
- Nc1ccc2c(c1)[nH]c1ccccc12 [F2.1]: good solubility

###

# Target under test: E. coli PhoR (PhoR^E) (Escherichia coli, UniProt P08400)
# Construct: The catalytic portion (DHp and CA domain) of E. coli PhoR (PhoR^E); made in house; host or cells: E. coli RIL
# Sequence (P08400 210-425): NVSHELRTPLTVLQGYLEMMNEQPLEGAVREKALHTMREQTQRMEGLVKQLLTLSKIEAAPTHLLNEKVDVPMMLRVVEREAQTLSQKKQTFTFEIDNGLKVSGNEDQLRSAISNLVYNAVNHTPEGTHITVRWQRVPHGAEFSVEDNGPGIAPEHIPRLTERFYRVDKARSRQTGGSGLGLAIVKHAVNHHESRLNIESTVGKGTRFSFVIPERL
# Assay text: In vitro autophosphorylation kinase assay with γ-32P-ATP, PhoR^E
# Assay type: biochemical
# Condition parameters: IC50 PhoR^E, autophosphorylation, one time point (30 sec), 10% DMSO
Listed here: items and their measured IC50.

Guide cases for IC50, answers given:
* CC(NCc1cccc(F)c1)c1ccc2ccccc2c1 (centres unmarked) | > 5 mM
* Cc1ccc(-c2csc(N)n2)cc1 | > 2 mM
* CC(=O)c1cccc(NC(=O)N(C)Cc2ccccc2)c1 | > 2 mM
* CC(=O)NC(Cc1ccccc1)C(=O)Nc1cccc(C)c1 (centres unmarked) | > 2 mM

# input GET /values?readout=IC50&item= `CCn1c2ccccc2c2cc(NC(C)=O)ccc21`
# output > 2 mM

# input GET /values?readout=IC50&item= `Nc1ncc(-c2ccc(Br)cc2)s1`
# output > 2 mM

# input GET /values?readout=IC50&item= `O=C(NCc1cccc(Cl)c1)Nc1ccccc1`
# output > 2 mM

# input GET /values?readout=IC50&item= CCC(c1cccc(Br)c1)C(C(C)=O)c1ccc(OC)cc1 (centres unmarked)
# output > 2 mM

# input GET /values?readout=IC50&item= `CC(=O)Nc1cccc(Cc2cccc(NC(C)=O)c2)c1`
# output > 2 mM

# input GET /values?readout=IC50&item= `CC(C)(C)c1ccc(NS(=O)(=O)c2ccc(N)cc2)cc1`
# output > 2 mM

# input GET /values?readout=IC50&item= CC(OC(=O)c1cccc(S(=O)(=O)N2CCc3ccccc3C2)c1)C(=O)NC(N)=O (centres unmarked)
# output > 5 mM
